# System: CRC cell lines (HCT116, LOVO, and S1)
# Experiment summary: MTT assay, CRC cell lines together
# Assay type: cell-based, human
# Particulars: Homo sapiens; MTT; range over HCT116, S1 and LOVO; read-out: IC50 in the CRC cells
pIC50: −log10 of the molar value.
Assay readout: pIC50

Observed pIC50 on CRC cell lines (HCT116, LOVO, and S1) for O=C(/C=C/c1cccc(OCc2ccccc2)c1)c1ccc(O)cc1 [Compound 15k] , please.
5.70 to 6.00

###

# System: CRL-1459
# Experiment summary: MTT assay, normal cell line
# Format: cell-based
# Particulars: 72 h incubation, mean ± SD of three experiments
Each entry below lists one item and its recorded IC50 value.
Your answer should be a plain number; it is taken to be in µM.

Known IC50 results, listed for orientation:
{"columns": ["Molecule", "Measure unit", "IC50"],
 "data": [
  ["O=C(/C=C/c1cccc(OCc2ccccc2)c1)c1ccc(Cl)cc1Cl [Compound 15c]", "µM", 7.8],
  ["O=C(/C=C/c1cccc(OCc2ccccc2)c1)c1ccc(Br)cc1 [Compound 15j]", "µM", 5.4],
  ["O=C(/C=C/c1cccc(OCc2ccccc2)c1)c1cccc(Br)c1 [Compound 15i]", "µM", 7.2],
  ["COc1ccc(C(=O)/C=C/c2cccc(OCc3ccccc3)c2)cc1 [Compound 15f]", "µM", 25.4]
]}

Query molecule follows.
I would be grateful if you could share the reported IC50 for O=C(/C=C/c1cccc(OCc2ccccc2)c1)c1ccc(Cl)cc1 [Compound 15b] .
12.8
